Each entry below carries its reported microsomal CLint.
# METHOD_DESCRIPTION: Metabolic stability in rat liver microsome assessed as intrinsic clearance
# Assay type: ADME
# CONDITION_PARAMETERS: liver microsomes
REPORTED_PROPERTY: microsomal CLint

# MOLECULE, REPORTED_PROPERTY, MEASURED_RESULT
rows = [
    ("Fc1ccc(-c2noc(C3CCN(c4cnc5ccc(Cl)cc5c4)CC3)n2)c(Cl)c1", "microsomal CLint", "32 µL/min/mg"),
    ("Clc1cnccc1-c1noc(C2CCN(c3cnc4ccccc4c3)CC2)n1", "microsomal CLint", "187 µL/min/mg"),
    ("CC(C)(CCc1nc(-c2ccc(F)cc2Cl)no1)Nc1cnc2ccccc2c1", "microsomal CLint", "775 µL/min/mg"),
    ("Fc1ccc(-c2noc([C@H]3C[C@@H]3CNc3cnc4ccccc4c3)n2)c(Cl)c1 (racemic)", "microsomal CLint", "193 µL/min/mg"),
    ("Fc1ccc(-c2noc(C3CCN(c4cnc5c(c4)CCCC5)CC3)n2)c(Cl)c1", "microsomal CLint", "130 µL/min/mg"),
    ("Fc1ccc(-c2noc(C[C@H]3CCN(c4cnc5ccccc5c4)C3)n2)c(Cl)c1", "microsomal CLint", "579 µL/min/mg"),
    ("O=C(CCc1nc(-c2ccc(F)cc2Cl)no1)Nc1cnc2ccccc2c1", "microsomal CLint", "126 µL/min/mg"),
    ("CC(CCc1nc(-c2ccc(F)cc2Cl)no1)Nc1cnc2ccccc2c1 (racemic)", "microsomal CLint", "> 399 µL/min/mg"),
    ("c1ccc2ncc(N3CCC(c4nc(C5CCCCC5)no4)CC3)cc2c1", "microsomal CLint", "185 µL/min/mg"),
    ("Fc1ccc(-c2noc(C3CCN(c4cnc5c(C(F)(F)F)cccc5c4)CC3)n2)c(Cl)c1", "microsomal CLint", "54 µL/min/mg"),
    ("Fc1ccc(-c2noc(C[C@@H]3CCN(c4cnc5ccccc5c4)C3)n2)c(Cl)c1", "microsomal CLint", "426 µL/min/mg"),
    ("Fc1ccc(-c2noc(C3CCN(c4cnc5ccc(OC(F)(F)F)cc5c4)CC3)n2)c(Cl)c1", "microsomal CLint", "18 µL/min/mg"),
    ("Fc1ccc(-c2noc(CCCNc3cnc4ccccc4c3)n2)c(Cl)c1", "microsomal CLint", "614 µL/min/mg"),
    ("CC1(C)CCCc2cc(N3CCC(c4nc(-c5ccc(F)cc5Cl)no4)CC3)cnc21", "microsomal CLint", "> 399 µL/min/mg"),
    ("Fc1ccc(-c2noc(C3CCN(c4cnc5ccccc5c4)CC3)n2)c(Cl)c1", "microsomal CLint", "80 µL/min/mg"),
    ("Clc1ccc(-c2noc(C3CCN(c4cnc5ccccc5c4)CC3)n2)c(Cl)c1", "microsomal CLint", "43 µL/min/mg"),
]

---

# METHOD_DESCRIPTION: Metabolic stability in human liver microsome assessed as intrinsic clearance
# Type: ADME
# CONDITION_PARAMETERS: liver microsomes
Each entry below carries its reported microsomal CLint.
REPORTED_PROPERTY: microsomal CLint (µL/min/mg)

# MOLECULE, REPORTED_PROPERTY, MEASURED_RESULT
rows = [
    ("O=C(CCc1nc(-c2ccc(F)cc2Cl)no1)Nc1cnc2ccccc2c1", "microsomal CLint", 49),
    ("Clc1ccc(-c2noc(C3CCN(c4cnc5ccccc5c4)CC3)n2)c(Cl)c1", "microsomal CLint", 58),
    ("Fc1ccc(-c2noc(C3CCN(c4cnc5ccc(Cl)cc5c4)CC3)n2)c(Cl)c1", "microsomal CLint", 38),
    ("Fc1ccc(-c2noc([C@H]3C[C@@H]3CNc3cnc4ccccc4c3)n2)c(Cl)c1 (racemic)", "microsomal CLint", 69),
    ("Fc1ccc(-c2noc(C[C@@H]3CCN(c4cnc5ccccc5c4)C3)n2)c(Cl)c1", "microsomal CLint", 215),
    ("Fc1ccc(-c2noc(C[C@H]3CCN(c4cnc5ccccc5c4)C3)n2)c(Cl)c1", "microsomal CLint", 215),
    ("Fc1ccc(-c2noc(C3CCN(c4cnc5ccc(OC(F)(F)F)cc5c4)CC3)n2)c(Cl)c1", "microsomal CLint", 28),
    ("Fc1ccc(-c2noc(C3CCN(c4cnc5ccccc5c4)CC3)n2)c(Cl)c1", "microsomal CLint", 92),
    ("c1ccc2ncc(N3CCC(c4nc(C5CCCCC5)no4)CC3)cc2c1", "microsomal CLint", 283),
    ("CC(C)(CCc1nc(-c2ccc(F)cc2Cl)no1)Nc1cnc2ccccc2c1", "microsomal CLint", 429),
    ("Clc1cnccc1-c1noc(C2CCN(c3cnc4ccccc4c3)CC2)n1", "microsomal CLint", 251),
    ("CC(CCc1nc(-c2ccc(F)cc2Cl)no1)Nc1cnc2ccccc2c1 (racemic)", "microsomal CLint", 142),
    ("Fc1ccc(-c2noc(CCCNc3cnc4ccccc4c3)n2)c(Cl)c1", "microsomal CLint", 179),
    ("Fc1ccc(-c2noc(C3CCN(c4cnc5c(c4)CCCC5)CC3)n2)c(Cl)c1", "microsomal CLint", 95),
    ("Fc1ccc(-c2noc(C3CCN(c4cnc5c(C(F)(F)F)cccc5c4)CC3)n2)c(Cl)c1", "microsomal CLint", 23),
    ("CC1(C)CCCc2cc(N3CCC(c4nc(-c5ccc(F)cc5Cl)no4)CC3)cnc21", "microsomal CLint", 380),
]
